# measured on: T1, VEGFR-3-Fc (UniProt P35916 25-328)
# T1 construct: domain: first three Ig domains; conditioned supernatant of 293T cells; also called VEGFR-3-Fc fusion protein; not shown: Fc fragment of the pIg vector
# T1 sequence (looked up): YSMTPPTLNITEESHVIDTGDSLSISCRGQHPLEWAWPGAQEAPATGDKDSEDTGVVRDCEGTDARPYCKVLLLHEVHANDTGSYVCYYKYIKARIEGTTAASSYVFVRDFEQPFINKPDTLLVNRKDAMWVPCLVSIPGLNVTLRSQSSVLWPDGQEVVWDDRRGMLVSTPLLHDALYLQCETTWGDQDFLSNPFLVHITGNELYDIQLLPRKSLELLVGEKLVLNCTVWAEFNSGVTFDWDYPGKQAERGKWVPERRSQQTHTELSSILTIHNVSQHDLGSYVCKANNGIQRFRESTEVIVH
# test summary: receptor-Fc IP
test readout: binding result

>>> observed_value("82-11 (ligand, clone entry) AHYNTEILKFMDVYQRSYCHPIETLVDIFQEFGVATNTFFKPPCVSVYRCGGCCNSEGLQCVPTEESNITMQIMRITVPLSQGPKPVTISFLQHNKCECRPKKDL")
"binds"
